targetEntity: T1, Human EphA2 (Ecto) (Human, UniProt P29317 24-537)
T1 construct: extracellular domain
T1 sequence (P29317 24-537): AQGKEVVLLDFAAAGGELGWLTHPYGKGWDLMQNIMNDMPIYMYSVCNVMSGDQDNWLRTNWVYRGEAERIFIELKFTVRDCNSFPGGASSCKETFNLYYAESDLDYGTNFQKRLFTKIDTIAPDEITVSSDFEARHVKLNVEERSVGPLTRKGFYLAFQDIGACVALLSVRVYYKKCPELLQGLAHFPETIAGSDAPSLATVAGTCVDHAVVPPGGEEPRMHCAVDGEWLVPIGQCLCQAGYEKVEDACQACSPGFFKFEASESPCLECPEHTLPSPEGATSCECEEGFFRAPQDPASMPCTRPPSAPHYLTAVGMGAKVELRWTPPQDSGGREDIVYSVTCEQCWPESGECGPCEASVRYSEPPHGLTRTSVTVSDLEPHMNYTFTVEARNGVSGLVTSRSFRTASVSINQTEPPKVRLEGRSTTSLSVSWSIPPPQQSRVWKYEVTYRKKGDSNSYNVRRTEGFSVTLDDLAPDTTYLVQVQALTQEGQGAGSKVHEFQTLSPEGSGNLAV
procedureText: FP competition, tracer Compound 18
Starred links: 1 amine or outer side, 2 acyl side, 3 side chain; linkers in the order of their positions; H or OH if unused. Positions of bridges follow the written chain, without caps; N, C: chain ends. Non-standard residues stand in square brackets, D forms with d. Primed or numbered codes have the meaning given here. No end group written: not given here. TBMB′ = 1,3,5-tris(bromomethyl)benzene, 1,3,5-tris(methylene)benzene core, three thioethers to Cys; TBMB = c1c(C[*:1])cc(C[*:3])cc1C[*:2]; hArg = N=C(N)NCCCC[C@H](N)C(=O)O; Tle = CC(C)(C)[C@H](N)C(=O)O; Sar = CNCC(=O)O
For each of the binders below, state its Ki.
Answer format: numeric, nM implied, no suffix.

# query: Ki of entry Ac-[Sar][Sar]AH[dD][Tle]PCPWGPFWCPVNRPGC (linker 8-15-22 via TBMB) [Bicycle Compound 211]
3.1

# query: Ki of entry [Sar][Sar]AH[dD]VPCPWGPFWCPVNRPGC (linker 8-15-22 via TBMB) [Bicycle Compound 209]
1.25

# query: Ki of entry Ac-[Sar][Sar]A[dD]VTCPWGP[hArg]WCPVNRPGC (linker 7-14-21 via TBMB′) [Bicycle Compound 171]
4.88

Numbers sourced from patent US11814447B2.
